conditionParameters: in isobutanol, 298.15 K
measuredQuantity: solubility (mole fraction)
Numbers only.

Note to self: solubility (mole fraction) recorded for "c1ccc2[nH]c(-c3cscn3)nc2c1" was 0.00144

* * *

conditionParameters: in 2-butanone, 308.15 K
measuredQuantity: solubility (mole fraction)
One number for each entry.

Lab note: measured solubility (mole fraction) of "c1ccc2[nH]c(-c3cscn3)nc2c1" was 0.00209

* * *

conditionParameters: in acetone, 298.15 K
measuredQuantity: solubility (mole fraction)
One number for each entry.

For "c1ccc2[nH]c(-c3cscn3)nc2c1" the compound record lists solubility (mole fraction) as 0.000936

* * *

conditionParameters: in acetonitrile, 308.15 K
measuredQuantity: solubility (mole fraction)
Answers are plain numbers.

// solubility (mole fraction) lookup, compound = "c1ccc2[nH]c(-c3cscn3)nc2c1" , result: 0.000253

* * *

conditionParameters: in isobutanol, 283.15 K
measuredQuantity: solubility (mole fraction)
One number for each entry.

GET /value?item= "c1ccc2[nH]c(-c3cscn3)nc2c1" &field=solubility (mole fraction) returns 0.000905

* * *

conditionParameters: in methyl acetate, 293.15 K
measuredQuantity: solubility (mole fraction)
Give bare numbers.

Per the records, this molecule ( "c1ccc2[nH]c(-c3cscn3)nc2c1" ) has solubility (mole fraction) equal to 0.000608

* * *

conditionParameters: in methyl acetate, 298.15 K
measuredQuantity: solubility (mole fraction)

Lab note: "c1ccc2[nH]c(-c3cscn3)nc2c1" gave solubility (mole fraction) of 0.000636

* * *

conditionParameters: in methanol, 323.15 K
measuredQuantity: solubility (mole fraction)
Numbers only.

# solubility (mole fraction) (compound: "c1ccc2[nH]c(-c3cscn3)nc2c1" ) is 0.00301

* * *

conditionParameters: in n-butyl acetate, 283.15 K
measuredQuantity: solubility (mole fraction)

"c1ccc2[nH]c(-c3cscn3)nc2c1" has a reported solubility (mole fraction) of 0.000445

* * *

conditionParameters: in acetone, 303.15 K
measuredQuantity: solubility (mole fraction)
Answers are plain numbers.

For record "c1ccc2[nH]c(-c3cscn3)nc2c1" the listed solubility (mole fraction) is 0.00105

* * *

conditionParameters: in n-propanol, 293.15 K
measuredQuantity: solubility (mole fraction)
One number for each entry.

Entry "c1ccc2[nH]c(-c3cscn3)nc2c1" ; solubility (mole fraction) = 0.00173

* * *

conditionParameters: in n-propanol, 308.15 K
measuredQuantity: solubility (mole fraction)
Numbers only.

Recorded solubility (mole fraction) (molecule "c1ccc2[nH]c(-c3cscn3)nc2c1" ): 0.00246

* * *

conditionParameters: in isobutanol, 293.15 K
measuredQuantity: solubility (mole fraction)
Answers are plain numbers.

Field solubility (mole fraction) (entry "c1ccc2[nH]c(-c3cscn3)nc2c1" ) reads 0.00123

* * *

conditionParameters: in acetonitrile, 313.15 K
measuredQuantity: solubility (mole fraction)
One number for each entry.

// sample "c1ccc2[nH]c(-c3cscn3)nc2c1" , its solubility (mole fraction) was 0.000309

* * *

conditionParameters: in ethanol, 303.15 K
measuredQuantity: solubility (mole fraction)

// solubility (mole fraction) value for "c1ccc2[nH]c(-c3cscn3)nc2c1" : 0.00192

* * *

conditionParameters: in ethanol, 293.15 K
measuredQuantity: solubility (mole fraction)
Give bare numbers.

Entry "c1ccc2[nH]c(-c3cscn3)nc2c1" — recorded solubility (mole fraction) = 0.00153

* * *

conditionParameters: in 2-butanone, 313.15 K
measuredQuantity: solubility (mole fraction)

Lookup result for "c1ccc2[nH]c(-c3cscn3)nc2c1" ; measured solubility (mole fraction): 0.00223

Where do these numbers come from? They come from BigSolDB 2.1.
